# TESTED_TARGET: Ephrin type-A receptor 2 (Homo sapiens) (UniProt P29317)
# Sequence (P29317 whole entry): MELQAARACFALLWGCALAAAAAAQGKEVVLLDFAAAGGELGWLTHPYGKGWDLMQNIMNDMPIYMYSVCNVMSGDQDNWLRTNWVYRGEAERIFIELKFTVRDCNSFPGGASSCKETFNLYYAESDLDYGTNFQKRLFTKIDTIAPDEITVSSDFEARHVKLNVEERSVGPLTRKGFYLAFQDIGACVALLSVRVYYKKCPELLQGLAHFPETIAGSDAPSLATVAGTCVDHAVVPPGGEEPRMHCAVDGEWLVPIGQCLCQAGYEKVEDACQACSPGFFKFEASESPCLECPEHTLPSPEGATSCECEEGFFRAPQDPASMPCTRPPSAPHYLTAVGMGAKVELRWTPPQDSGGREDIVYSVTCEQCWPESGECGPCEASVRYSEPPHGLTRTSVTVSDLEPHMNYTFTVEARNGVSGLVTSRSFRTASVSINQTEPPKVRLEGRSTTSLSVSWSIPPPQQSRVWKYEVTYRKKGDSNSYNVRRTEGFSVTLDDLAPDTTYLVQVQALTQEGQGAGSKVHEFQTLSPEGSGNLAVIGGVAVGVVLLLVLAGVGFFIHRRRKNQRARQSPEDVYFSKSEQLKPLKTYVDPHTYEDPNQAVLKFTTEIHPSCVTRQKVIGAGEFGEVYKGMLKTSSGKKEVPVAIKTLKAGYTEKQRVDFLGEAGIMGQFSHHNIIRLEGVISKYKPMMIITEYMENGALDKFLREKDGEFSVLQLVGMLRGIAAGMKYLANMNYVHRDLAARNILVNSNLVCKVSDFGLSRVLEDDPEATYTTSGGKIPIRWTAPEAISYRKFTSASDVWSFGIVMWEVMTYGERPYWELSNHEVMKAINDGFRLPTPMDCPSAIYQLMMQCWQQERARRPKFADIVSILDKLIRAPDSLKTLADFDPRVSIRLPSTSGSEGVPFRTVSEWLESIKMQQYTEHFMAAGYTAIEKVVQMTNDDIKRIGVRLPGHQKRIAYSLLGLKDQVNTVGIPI
# CONDITION_LABEL: at 10 µM
Quick reference for residual activity among some compounds
METRIC: residual activity (%)

>>> value_measured("COc1ccc(CNc2nc(N(CCO)CCO)nc3c2ncn3C(C)C)cc1")
117
>>> value_measured("O=c1cc(-c2cccc3c2Sc2ccccc2S3)oc(N2CCOCC2)c1")
82
>>> value_measured("c1ccc2c(-c3ccncc3)c[nH]c2c1")
92
>>> value_measured("O=c1c2ccccc2[nH]c(=S)n1CCN1CCC(=C(c2ccc(F)cc2)c2ccc(F)cc2)CC1")
100
>>> value_measured("O=C1Nc2cc(Br)ccc2/C1=C1/Nc2ccccc2/C1=N\\O")
20
